- test method notes: NCI Yeast Anticancer Drug Screen. Data for the bub3 strain (AID 167)
- condition summary: S. cerevisiae bub3 mutant strain, at 5.0 µM (retest, dose inferred, filed as 0.5)
The panel holds about 79,000 compounds, 15% with a hit somewhere; the sample as a whole holds those more often. Activity calls are given as the source filed them. Cut-off read from the data, not from the text of the source: active = growth inhibition above about 70%; inactive = the rest.
I would appreciate it if you answered using one of these outcomes: active, inactive

Some solved cases for reference:
[
  {
    "molecule": "CN(C)/C(=N/C(=S)Nc1ccccc1)SCc1ccccc1",
    "class assignment": "inactive"
  },
  {
    "molecule": "O=C(NNc1ccccc1)C(CCCCNS(=O)(=O)Cc1ccccc1)NS(=O)(=O)Cc1ccccc1 (stereo unspecified)",
    "class assignment": "inactive"
  },
  {
    "molecule": "NC(CCCCCCCCCCCCC(N)C(=O)c1ccccc1)C(=O)c1ccccc1 (stereo unspecified)",
    "class assignment": "inactive"
  },
  {
    "molecule": "Cc1cc(OCc2nc(N)nc(N)c2-c2ccc(Cl)c(Cl)c2)ccc1[N+](=O)[O-]",
    "class assignment": "inactive"
  },
  {
    "molecule": "O=C(Oc1ccc([N+](=O)[O-])cc1)c1ccc([N+](=O)[O-])cc1",
    "class assignment": "active"
  },
  {
    "molecule": "O=C(NO)c1coc2ccccc2c1=O",
    "class assignment": "inactive"
  },
  {
    "molecule": "CC(C)Cc1ncc(CCCN=C(N)N)[nH]c1=O",
    "class assignment": "inactive"
  },
  {
    "molecule": "O=C(C#Cc1ccccc1)Nc1ccccc1",
    "class assignment": "inactive"
  }
]

input: Assay outcome for O=C1CC(C(O)(C(F)(F)F)C(F)(F)Cl)CCC1C(O)(C(F)(F)F)C(F)(F)Cl (stereo unspecified) : what was it?
output: inactive

input: I'd appreciate the recorded outcome for "CCS(=O)(=O)Nc1ccc(Nc2c3ccccc3nc3ccccc23)c(OC)c1" from this test.
output: inactive

input: Kindly provide the recorded test outcome for the following molecule: CC(CN(C)C)C(=O)/C=C/c1ccc(Cl)c(Cl)c1 (stereo unspecified)
output: inactive

---

- test method notes: NCI Yeast Anticancer Drug Screen. Data for the rad50 strain (AID 155)
- condition summary: S. cerevisiae rad50 strain growth inhibition; at 50.0 µM; stronger effect = higher value
This is part of a sample that, as a whole, favours compounds with a hit. Of some 79,000 tested, about 15% had one in any assay.
Assign fulfilled to entries whose growth inhibition meets or exceeds 80%; assign not fulfilled to the rest.

[
  {
    "compound": "Cc1cccc2c(Cl)c3cccc(C)c3nc12",
    "class assignment": "not fulfilled"
  },
  {
    "compound": "COc1cc(OC)c(CSCC(NC(=O)OCC2c3ccccc3-c3ccccc32)C(=O)O)c(OC)c1 (configuration not stated)",
    "class assignment": "fulfilled"
  },
  {
    "compound": "O=C(Cc1ccccc1)NNc1nc(NNC(=O)c2ccncc2)nc(Nc2ccc([N+](=O)[O-])cc2)n1",
    "class assignment": "not fulfilled"
  },
  {
    "compound": "O=C(NOC(=O)c1ccc([N+](=O)[O-])cc1)c1ccc(Cl)cc1",
    "class assignment": "fulfilled"
  },
  {
    "compound": "CN1CCN(C(=O)c2cccc3cccc(C(=O)O)c23)CC1",
    "class assignment": "fulfilled"
  },
  {
    "compound": "O=C(NCCCCN1CC2CCCC2C1)C(C1CCCCC1)C1CCCCC1 (configuration not stated)",
    "class assignment": "not fulfilled"
  },
  {
    "compound": "O=c1c2ccccc2nc(-c2cccc([N+](=O)[O-])c2)n1O",
    "class assignment": "fulfilled"
  },
  {
    "compound": "O=[N+]([O-])c1ccc(S(=O)(=O)Cc2ccccc2)c([N+](=O)[O-])c1",
    "class assignment": "fulfilled"
  }
]

Please examine the following record next.
input: Hi team, for "Nc1ccc(/C=C/c2ccc3cccnc3c2)cc1" , is the recorded growth inhibition at or above 80%?
output: not fulfilled
